Taken from patent US20250051443A1.

# System Name: T1, human CD3 (human, UniProt P07766 23-207; P09693 23-182; P04234 22-171)
# T1 construct: whole, on cells; also called CD3 on Jurkat T cells; CD3 on primary human T cells
# Test Method Notes: flow competition on Jurkat, 100 nM unlabeled mAb; competitor AF488-SP34.2 20 nM
# Protocol: In order to evaluate whether anti-CD3 monoclonal antibodies bind to the same epitope region, flow cytometry competition experiments on Jurkat cells were performed. To that effect, a fixed concentration of the indicated AF488-labeled mAb were incubated with 100 nM of unlabeled monoclonal antibodies to assess if their binding capacity was impaired in presence of unlabeled mAbs. […] The final product was analyzed by UPLC-SEC to ensure the integrity of the labeled mAb.
Readout Name: % residual fluorescence of labeled mAb (%)
Write the answer as a number in %, unit excluded.

Data request: Would you kindly share the measured % residual fluorescence of labeled mAb for F332-8F7 (antibody, mouse IgG2a, V domains shown, also called F332-8F7-3) VH: QVQLQQPGAELGKPGTSVKLSCKASGYTFTSYWIHWVKQRPGQGLEWIGNINPNSGSTNYNEKFKNKATLTVDKSSSTASMQLSTLTSEDSAVYYCTRDISGQYYFDYWGQGTTLTVSS VL: DIVMSQSPSSLAVSTGGEVTMSCKSSQSLLNSRTRKNYLAWYQQKPGQSPKLLIYWASTRESGVPDRFTGSGSGTDFTLTISSVQAEDLAVYYCIQSYSLRTFGGGTKLGIK ?
Data returned: 10

Data request: Would you kindly share the measured % residual fluorescence of labeled mAb for F332-5F2 (antibody, mouse IgG2b, V domains shown, also called F332-5F2-2; F332-5F2 (6G8, 13A3)) VH: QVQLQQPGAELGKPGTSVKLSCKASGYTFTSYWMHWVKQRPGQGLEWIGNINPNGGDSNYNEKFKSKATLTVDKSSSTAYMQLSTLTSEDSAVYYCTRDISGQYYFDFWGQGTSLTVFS VL: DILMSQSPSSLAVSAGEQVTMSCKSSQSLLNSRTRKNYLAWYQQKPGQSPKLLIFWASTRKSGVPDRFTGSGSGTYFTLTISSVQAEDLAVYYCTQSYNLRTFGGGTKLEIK ?
Data returned: 9

Data request: Would you kindly share the measured % residual fluorescence of labeled mAb for F332-6D7 (antibody, mouse IgG2a, V domains shown, also called F332-6D7-2; F332-6D7 (7G4)) VH: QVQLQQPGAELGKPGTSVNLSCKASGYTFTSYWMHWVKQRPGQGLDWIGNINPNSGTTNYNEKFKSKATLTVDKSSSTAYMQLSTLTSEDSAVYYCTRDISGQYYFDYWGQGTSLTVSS VL: DIVMSQSPSSLAVSAGEKVTMSCKSSQSLLNSRTRKNYLAWYQQKPGQSPKLLIYWASTRESGVPDRFTGSGSGTDFTLTISSVQAEDLAVYYCKQSYSLRTFGGGSKLEIK ?
Data returned: 10

Data request: Would you kindly share the measured % residual fluorescence of labeled mAb for F282-2D5 (antibody, V domains shown, also called F282-2D5-2) VH: QVQLQQPGTELVKPGASVKLSCKASGYTFTSYWMHWVKQRPGQGLEWIGNINPSNGGTNYNENFKTKATLTVDKSSSTAYMQLSSLTSEDSAVYYCARDRSGQYYFDYWGQGTTLTVSS VL: DIVMSQSPSSLAVSAGEKVTMSCKSSQSLLNSRTRKNYLAWYQQKPGQSPKLLIYWASTRESGVPDRFTGSGSGTDFTLTISSVQAEDLAVYYCIQSYHLRTFGGGTILEIK ?
Data returned: 7

Data request: Would you kindly share the measured % residual fluorescence of labeled mAb for F332-1E2 (antibody, mouse IgG2a, V domains shown, Sister clone 8C5 shares the same entries; also called F332-1E2-2; F332-1E2 (8C5)) VH: QVQLQQPGAELGKPGTSVKLSCKASGYTFTSYWIHWVKQRPGQGLEWVGNINPNSGSINYNEKFKNKATLTVDKSSSTAYMQLSTLTSEDFAVYYCTRDTSGQYYFDYWGQGTTLTVSS VL: DIVMSQSPSSLAVSAGERVTMSCKSSQSLLNSRTRKNYLAWYQQKPGQSPKLLIYWASTRESGVPDRFTGSGSGTDFTLTISSVQAEDLAVYYCIQSYHLRTFGGGTKLEIK ?
Data returned: 6
